These measurements were taken from PubChem BioAssay AID1963832.

tested on: 885724-159-R-J1-PDC complex spheroid viability; test: Anticancer human tumor 885724-159-R-J1-PDC patient-derived pancreatic adenocarcinoma cell line growth inhibition [POLQ]; conditions: second compound 10 µM; first compound 3.16 µM; hits give low values;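 note: spheroids exposed to compounds for 7 days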
# if measured viability, T/C < 90%: Condition met  # else: Condition not met

| molecule | discrete.label |
| --- | --- |
| O=C(c1cc(Cc2n[nH]c(=O)c3ccccc23)ccc1F)N1CCN(C(=O)C2CC2)CC1 + Cc1cccc(N(C)C(=O)C2C(O)CCN2c2nc(C)cc(C(F)(F)F)c2C#N)c1 | Condition not met |
| COc1cc(C2c3cc4c(cc3C(OC3OC5COC(C)OC5C(O)C3O)C3COC(=O)C23)OCO4)cc(OC)c1O (stereo unspecified) + Cc1cccc(N(C)C(=O)C2C(O)CCN2c2nc(C)cc(C(F)(F)F)c2C#N)c1 | Condition met |
| O=C(Nc1ccc(O)c(NS(=O)(=O)c2ccc(F)cc2)c1)c1ccc(-c2ccccc2)cc1 + COC1C(OC(N)=O)C(O)C(Oc2ccc3c(O)c(NC(=O)c4ccc(O)c(CC=C(C)C)c4)c(=O)oc3c2C)OC1(C)C | Condition not met |
| COc1cccc2c1C(=O)c1c(O)c3c(c(O)c1C2=O)CC(O)(C(=O)CO)CC3OC1CC(N)C(O)C(C)O1 (stereo unspecified) + Cc1cccc(N(C)C(=O)C2C(O)CCN2c2nc(C)cc(C(F)(F)F)c2C#N)c1 | Condition met |
| COc1ccc([C@@H](O)c2cc(-c3ncnc4cc(N5CCOCC5)ccc34)c(F)cc2Cl)nn1 + Cc1cccc(N(C)C(=O)C2C(O)CCN2c2nc(C)cc(C(F)(F)F)c2C#N)c1 | Condition met |
| C=CC(=O)N1CCN(c2nc(=O)n(-c3c(C)ccnc3C(C)C)c3nc(-c4c(O)cccc4F)c(F)cc23)C(C)C1 (stereo unspecified) + COC1C(OC(N)=O)C(O)C(Oc2ccc3c(O)c(NC(=O)c4ccc(O)c(CC=C(C)C)c4)c(=O)oc3c2C)OC1(C)C | Condition not met |
| O=c1[nH]cc(F)c(=O)[nH]1 + Cc1cccc(N(C)C(=O)C2C(O)CCN2c2nc(C)cc(C(F)(F)F)c2C#N)c1 | Condition not met |
| CC1COCCN1c1cc(C2(S(C)(=N)=O)CC2)nc(-c2ccnc3[nH]ccc23)n1 (stereo unspecified) + COC1C(OC(N)=O)C(O)C(Oc2ccc3c(O)c(NC(=O)c4ccc(O)c(CC=C(C)C)c4)c(=O)oc3c2C)OC1(C)C | Condition met |
| CC1COCCN1c1cc(C2(O)CC3CCC(C2)O3)c2cnn(-c3ccn[nH]3)c2n1 (stereo unspecified) + Nc1ccc(C#CCN(C(=O)Cc2ncc(C(F)(F)F)cc2C(F)(F)F)c2ccc(F)cc2)nn1 | Condition met |
| CNCc1ccc(-c2[nH]c3cc(F)cc4c3c2CCNC4=O)cc1 + Cc1cccc(N(C)C(=O)C2C(O)CCN2c2nc(C)cc(C(F)(F)F)c2C#N)c1 | Condition met |
| CC1COCCN1c1cc(-c2ccnn2C)c2ccnc(-c3ccn[nH]3)c2n1 (stereo unspecified) + COC1C(OC(N)=O)C(O)C(Oc2ccc3c(O)c(NC(=O)c4ccc(O)c(CC=C(C)C)c4)c(=O)oc3c2C)OC1(C)C | Condition met |
